// provenance: PubChem BioAssay (NCATS)

Could you please report measured activity, negative = cell killing for the items listed next?
- Protocol Description: Drug repurposing screens with cells derived from glioblastoma tumor samples (AID 1345199); also: % is scaled to controls: 0 for no effect and ±100 for the full control effect
- Applied Conditions: GBM patient neurospheres viability, ATP luminescence, 48 h; at 21.2 µM (top of the series); tumour line B
Records with an inconclusive call do not appear.
Enter your answer as a number in %; do not include the unit.

INPUT: Return the recorded activity, negative = cell killing value; entry: O=c1n(CCCN2CCN(c3cccc(Cl)c3)CC2)nc2ccccn12
OUTPUT: -8.69

INPUT: Return activity, negative = cell killing (reported value) for this compound: Nc1ccc(S(=O)(=O)Nc2ccnn2-c2ccccc2)cc1
OUTPUT: -5.49

INPUT: Give the reported activity, negative = cell killing for this compound. N#Cc1ccc(C(c2ccc(C#N)cc2)n2cncn2)cc1
OUTPUT: -10

INPUT: Please supply the value of reported activity, negative = cell killing for the item Nc1nc2c(ncn2COCCO)c(=O)[nH]1
OUTPUT: -4.96

INPUT: For the compound CCC(C)(C)C(=O)O[C@H]1C[C@@H](C)C=C2C=C[C@H](C)[C@H](CC[C@@H]3C[C@@H](O)CC(=O)O3)[C@H]21 , give its measured activity, negative = cell killing value.
OUTPUT: -19.9

INPUT: Respond only with activity, negative = cell killing recorded for O=C(O)COCCN1CCN(C(c2ccccc2)c2ccc(Cl)cc2)CC1 (stereo unspecified)
OUTPUT: -3.42
